Attribute: IC50
biological target: SHP2 (Homo sapiens (Human), UniProt Q06124); test: SHP2 Allosteric Inhibition Assay (DiFMUP prompt fluorescence); assay type: biochemical; conditions: 0.5 nM SHP2 activated with 0.5 μM peptide IRS1_pY1172(dPEG8)pY1222; substrate DiFMUP; 25° C.
Sequence (Q06124 whole entry): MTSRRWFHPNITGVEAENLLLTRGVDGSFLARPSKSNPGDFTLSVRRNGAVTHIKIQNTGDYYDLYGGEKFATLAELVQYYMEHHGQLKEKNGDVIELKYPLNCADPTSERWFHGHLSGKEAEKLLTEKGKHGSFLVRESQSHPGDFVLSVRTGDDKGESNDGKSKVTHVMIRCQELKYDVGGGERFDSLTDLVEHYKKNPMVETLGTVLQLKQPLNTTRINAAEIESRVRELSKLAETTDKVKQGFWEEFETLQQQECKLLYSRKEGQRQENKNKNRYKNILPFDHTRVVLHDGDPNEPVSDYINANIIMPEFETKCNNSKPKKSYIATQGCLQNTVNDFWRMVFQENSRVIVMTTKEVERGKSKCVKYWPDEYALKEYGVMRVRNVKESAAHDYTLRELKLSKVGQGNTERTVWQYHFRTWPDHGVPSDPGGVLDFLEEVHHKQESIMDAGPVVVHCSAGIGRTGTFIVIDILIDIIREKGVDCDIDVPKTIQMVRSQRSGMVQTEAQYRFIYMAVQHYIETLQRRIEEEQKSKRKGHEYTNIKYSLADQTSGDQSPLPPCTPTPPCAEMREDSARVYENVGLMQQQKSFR
Give the value in nM but do not write nM after it.

[
  {
    "molecule": "C[C@]1(CN)CCN(c2cnc(-c3cccc(Cl)c3Cl)c(N)n2)C[C@H]1O (single isomer, unassigned) [11 P1]",
    "IC50 (nM)": 38
  }
]

# ---- query molecule ----
Given C[C@]1(CN)CCN(c2cnc(-c3cccc(Cl)c3Cl)c(N)n2)C[C@H]1O (single isomer, unassigned) [11 P2] , state its recorded IC50. 164
